Each record here notes measured TGI.
# Tested on: NCI-H23 lung
# EXPERIMENTAL_DETAILS: NCI tumour cell line growth inhibition, 48 h

Reference set, count: 5
Asked: Return reported TGI for target or system NCI-H23 lung, item `C#CCCOC(=O)c1ccccc1OC(C)=O` .
Given back: > 100 µM

Asked: Return reported TGI for target or system NCI-H23 lung, item CC1=C2CN(C(=O)OCC(C)C)CCC2C2=C(C(=O)c3ccccc3C2=O)C1C (stereo not given) .
Given back: > 10 µM

Asked: Return reported TGI for target or system NCI-H23 lung, item `CC(=O)[O][Bi]([c]1ccccc1)[c]1ccccc1` .
Given back: 27.8 µM

Asked: Return reported TGI for target or system NCI-H23 lung, item Oc1cccc2c1[nH]c1c(C3=C[C@@]4(O)CC/C=C\CCCCN5CC[C@@H]3[C@]3(CC6/C=C\CCCCN6[C@H]34)C5)nccc12 (stereo not given in full) .
Given back: 2.56 µM

Asked: Return reported TGI for target or system NCI-H23 lung, item O=C(N/N=C(\c1nc2ccc(Cl)cc2[nH]c1=O)C(O)c1ccccc1Cl)c1ccncc1 (stereo not given) .
Given back: > 100 µM

Further cases:
Asked: Return reported TGI for target or system NCI-H23 lung, item O=C(O)C1=NN(c2ccc(S(=O)(=O)O)cc2)C2(C1)SCC(=O)N2c1nc2ccccc2s1 (stereo not given) .
Given back: > 100 µM

Asked: Return reported TGI for target or system NCI-H23 lung, item `C[C@@H]1OCC2(CCN(c3cnc(Sc4ccnc(N)c4Cl)c(N)n3)CC2)[C@@H]1N` .
Given back: > 100 µM

---

# Tested on: U251 CNS
# EXPERIMENTAL_DETAILS: NCI tumour cell line growth inhibition, 48 h
RECORDED_METRIC: TGI

Asked: Return reported TGI for target or system U251 CNS, item CC1c2cc(c3c(c2O)CN([C@@H](C)C2CCCCC2)CO3)C(C)c2cc(c3c(c2O)CN([C@@H](C)C2CCCCC2)CO3)C(C)c2cc(c3c(c2O)CN([C@@H](C)C2CCCCC2)CO3)C(C)c2cc1c1c(c2O)CN([C@@H](C)C2CCCCC2)CO1 (stereo partly drawn) .
Given back: 2.83 µM

Asked: Return reported TGI for target or system U251 CNS, item `C=C(CN)CO[Si](C)(C)C(C)(C)C` .
Given back: > 100 µM

Proceeding to the next molecule to report its TGI.
Asked: Return reported TGI for target or system U251 CNS, item COC(=O)C1=C(C)N(NC(N)=O)C(C)(O)C12CCOC2=O (stereo not drawn) .
Given back: > 100 µM

---

# Test system: MOLT-4 leukemia
# EXPERIMENTAL_DETAILS: NCI tumour cell line growth inhibition, 48 h
RECORDED_METRIC: TGI

Reference set, count: 4
Asked: Read the entry `C[N+](C)(CCO)CCN1c2ccccc2Sc2ccccc21` and write its reported TGI.
Given back: > 10 µM

Asked: Read the entry `c1cc(C[S+]2CCCC2)sc1C[S+]1CCCC1` and write its reported TGI.
Given back: > 100 µM

Asked: Read the entry `COC(=O)N/N=C(/Cc1occc(=O)c1O)C(=O)Nc1ccc([N+](=O)[O-])cc1[N+](=O)[O-]` and write its reported TGI.
Given back: > 100 µM

Asked: Read the entry `C=C1C(=O)O[C@H]2[C@H]1CC/C(COC(=O)NCc1cc(OC)cc(OC)c1)=C\CC[C@@]1(C)O[C@@H]21` and write its reported TGI.
Given back: 5.55 µM

Further cases:
Asked: Read the entry `CC1=CC(=O)/C(=C/n2c(=S)[nH]c3ccc([N+](=O)[O-])cc32)C(=O)O1` and write its reported TGI.
Given back: > 100 µM

---

Each record here notes measured TGI.
# Test system: RPMI-8226 leukemia
# EXPERIMENTAL_DETAILS: NCI tumour cell line growth inhibition, 48 h
I only need the number, in µM, no unit after it.

Asked: Read the entry `C=C(C)[C@@H]1CC[C@]2(C(N)=O)CC[C@]3(C)[C@H](CC[C@@H]4[C@@]5(C)C/C(=C/c6cccnc6)[C@H](O)C(C)(C)[C@@H]5CC[C@]43C)[C@@H]12` and write its reported TGI.
Given back: 48.3

Asked: Read the entry `O=[N+]([O-])c1cc2c(c([N+](=O)[O-])c1)Nc1ccccc1O2` and write its reported TGI.
Given back: 8.2

Asked: Read the entry `COc1ccc2nc(-c3cc4c([nH]c5ccccc54)c(-c4ccc(F)c(F)c4)n3)[nH]c2c1` and write its reported TGI.
Given back: 4.29

Asked: Read the entry `CN(C)Cc1cc(/C=C/C(=O)c2ccc(Cl)c(Cl)c2)cc(CN(C)C)c1O` and write its reported TGI.
Given back: 36.8

Asked: Read the entry Oc1cccc2c1[nH]c1c(C3=C[C@@]4(O)CC/C=C\CCCCN5CC[C@@H]3[C@]3(CC6/C=C\CCCCN6[C@H]34)C5)nccc12 (some centres undefined) and write its reported TGI.
Given back: 2.6

Further cases:
Asked: Read the entry `CC[C@H]1C=CCC[C@@]2(C[C@@H]3CC[C@H]4[C@H](C(=O)OCCCCCCCCCCCCCCCC(=O)N(CCCN)C[C@@H](O)CCN)[C@]5(CCC[C@@H](C)O5)NC(=[N+]34)N2)O1` and write its reported TGI.
Given back: 0.833

Asked: Read the entry `CC#CC(=O)N1CC[C@@H](n2c(=O)n(-c3ccc(Oc4ccccc4)cc3)c3c(N)ncnc32)C1` and write its reported TGI.
Given back: 66.3

Asked: Read the entry COc1cc2c(cc1OCCCN1CCN(c3ncnc4ccccc34)CC1)N=CC1CCCN1C2=O (centres undefined) and write its reported TGI.
Given back: 0.0353

Asked: Read the entry `CCN(CC)C(=S)SS(=O)(=O)c1ccc(NC(C)=O)cc1` and write its reported TGI.
Given back: 44

Asked: Read the entry COC(=O)C(=O)C(C(=O)OC)C(=O)C(=O)Nc1cc(Cl)c(Cl)cc1Cl (centres undefined) and write its reported TGI.
Given back: 60.3

---

Each record here notes measured TGI.
# Tested on: ACHN renal
# EXPERIMENTAL_DETAILS: NCI tumour cell line growth inhibition, 48 h

Asked: Return reported TGI for target or system ACHN renal, item `Cc1ccc(N2C(=O)C(Cl)=C(Cl)C2=O)cc1` .
Given back: 34.1 µM

Further cases:
Asked: Return reported TGI for target or system ACHN renal, item `O=C(OCc1ccccc1)N1CCCc2c(n(S(=O)(=O)c3ccccc3)c3ccccc23)C1` .
Given back: > 100 µM

Asked: Return reported TGI for target or system ACHN renal, item C=CCSSc1ncnc2c1ncn2C1OC(CO)C(O)C1O (stereo unspecified) .
Given back: > 100 µM

Asked: Return reported TGI for target or system ACHN renal, item `c1ccc2c(c1)[nH]c1c2ncc2[nH]c3ccccc3c21` .
Given back: 16.3 µM

Asked: Return reported TGI for target or system ACHN renal, item `O=Nc1c(NO)ccc2nn(-c3ccccc3)nc12` .
Given back: 47.7 µM

Asked: Return reported TGI for target or system ACHN renal, item `CCCCCCCCCCCCC(CCCCCCCCCCCC)OP(=O)(O)O` .
Given back: > 100 µM

Asked: Return reported TGI for target or system ACHN renal, item O=C(c1ccccc1)C1C[C@H]2CO[C@H](c3ccccc3)N2C1=O (stereo partly specified) .
Given back: > 100 µM

Asked: Return reported TGI for target or system ACHN renal, item `Cn1c(=O)c2[nH]c(CCCCc3nc4c([nH]3)c(=O)n(C)c(=S)n4C)nc2n(C)c1=S` .
Given back: > 100 µM

Asked: Return reported TGI for target or system ACHN renal, item `CC(=O)[O][Bi]([c]1ccccc1)[c]1ccccc1` .
Given back: 24.4 µM

Asked: Return reported TGI for target or system ACHN renal, item `c1cc(C[S+]2CCCC2)sc1C[S+]1CCCC1` .
Given back: > 100 µM

Asked: Return reported TGI for target or system ACHN renal, item CC1=Nc2ccccc2C12C(c1ccccc1)C(c1ccccc1)C(=O)N1c3ccccc3CC12 (stereo unspecified) .
Given back: > 100 µM

---

# Test system: MDA-MB-231 breast
# EXPERIMENTAL_DETAILS: NCI tumour cell line growth inhibition, 48 h
RECORDED_METRIC: TGI

Asked: Read the entry Cc1cc(O)c2c(c1)CC(O)C1=C2C(=O)c2c(O)ccc(OC3CC(O)C(OC4CC(OC5CCC(O)C(C)O5)C(O)C(C)O4)C(C)O3)c2C1=O (stereo unspecified) and write its reported TGI.
Given back: 3.58 µM

Asked: Read the entry `C=C1C(=O)O[C@H]2[C@H]1CC/C(COC(=O)NCc1cc(OC)cc(OC)c1)=C\CC[C@@]1(C)O[C@@H]21` and write its reported TGI.
Given back: 4.07 µM

Asked: Read the entry CCCCCC/C=C1\CCC(CN(C)C)C1=O (stereo unspecified) and write its reported TGI.
Given back: 18 µM

Further cases:
Asked: Read the entry `COCN1C(=O)[C@@H]2CCCN2C(=O)c2ccc([N+](=O)[O-])cc21` and write its reported TGI.
Given back: > 100 µM

Asked: Read the entry Cc1ccc(C2SCC(=O)N2NC(=O)c2ccncc2)s1 (stereo unspecified) and write its reported TGI.
Given back: > 100 µM

Asked: Read the entry `CC(C)NC(=O)OCc1c(COC(=O)NC(C)C)c(-c2ccc[n+](COC(=O)C(C)(C)C)c2)n2c1CCC2` and write its reported TGI.
Given back: > 100 µM
